Tested on: A549 NSCLC cell line
Test: AlamarBlue proliferation assay, A549
Format: cell-based
Conditions: Homo sapiens; A549, AlamarBlue proliferation, 72 hours; read-out: IC50
Examples of compounds with documented IC50 follow.
Quick reminder: number only, in µM, skip the unit.

What does the data say about its IC50? Entry: CCN(CC)CCNC(=O)c1c(C)[nH]c(/C=C2\C(=O)Nc3ccc(F)cc32)c1C [Sunitinib]
5.5

// query: COc1cc2c(Nc3ccc(Br)cc3F)ncnc2cc1OCC1CCN(C)CC1 [Vandetanib]
9.7

---

System: NSCLC cell lines classified as resistant
Assay: AlamarBlue proliferation assay, NSCLC lines classified as resistant
Format: cell-based
Settings: range across resistant NSCLC lines, 72 hours; read-out: IC50s of the remaining lines classified as resistant
measured parameter: IC50

smiles code | IC50
COc1cc2c(Nc3ccc(Br)cc3F)ncnc2cc1OCC1CCN(C)CC1 | 2.1 to 13.9 µM

// moving on: another record for IC50
// lookup IC50 for `CCN(CC)CCNC(=O)c1c(C)[nH]c(/C=C2\C(=O)Nc3ccc(F)cc32)c1C`
4.8 to 14.2 µM
